Test system: Myzus persicae clone 5191A
Assay type: in vivo
Settings: LC50 of imidacloprid, alone or after 5 h pre-treatment with 0.25 μL of 1 g L−1 synergist; apterous aphids, topical, scored 72 h after treatment; probit analysis
We'd kindly ask you to apply these LC50 (lethal concentration to kill 50% of the population) classes: low class = under 5 ppm, middle class = from 5 ppm up to 20 ppm, high class = 20 ppm and over

1) CC#CCOc1cc2c(cc1CCC)OCO2	low class
2) CCCCCCCCCCCCc1ccc2c(c1)OCO2	high class
3) CC#COCc1ccc2c(c1)CCO2	middle class
4) O=[N+]([O-])NC1=NCCN1Cc1ccc(Cl)nc1	high class

Challenge: Form field 'band' for `CC#CCOCc1cc2c(cc1CCC)OCO2`
Response given: low class

Challenge: Could you place CCCCOCCOCCOCc1cc2c(cc1CCC)OCO2 [PBO, piperonyl butoxide] in its proper category? Many thanks.
Response given: middle class

Challenge: Band for `CC#CCOc1ccc2c(c1)OCO2` ?
Response given: low class

Challenge: Bin this entry: `CCCCOCCOCCOCc1cc2c(cc1CCC)CCC2`
Response given: high class

Challenge: Category of `CCCCOCCOCCOCc1cc2c(cc1CCC)CCO2` :
Response given: middle class

Challenge: For this compound, which bin applies? `CC#CCOc1cc2c(cc1CCC)CCO2`
Response given: middle class

Origin of the recorded values: patent US10104890B2
